target-under-test: T1, RBM5 RRM1-ZnF1S (human, UniProt P52756 94-210, C191G)
T1 sequence: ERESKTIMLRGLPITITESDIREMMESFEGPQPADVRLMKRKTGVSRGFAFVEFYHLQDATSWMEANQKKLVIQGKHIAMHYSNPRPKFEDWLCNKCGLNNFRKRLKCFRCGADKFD
assay-notes: ITC; N about 0.6; Discussion prints 6 uM but also 2.4-fold weaker than 263 nM; ITC: 20 mM MES pH 6.5, 100 mM NaCl, 2 mM BME, 25 C; NMR: 20 mM MES pH 6.5, 100 mM (single RRMs) or 400 mM (multidomain) NaCl, 1 mM DTT, 298 K
condition-details: protein: recombinant
property: Kd (nM)
Please state the figure in nM; there is no need to write the unit.

Looking up ACUUGGCUCUUCUCU (ssRNA) [eGGCU_12] , I found its Kd recorded as 641
